assay: Cytotoxicity against human HuH7 cells assessed as reduction in rRNA levels after 5 days by RT-PCR analysis; format: cell-based, Huh-7; conditions: HuH7 cells
readoutName: CC50 at 120 h

molecule | readoutName | value
CC(C)OC(=O)[C@H](C)N[P@](=O)(OC[C@H]1O[C@@H](n2ccc(=O)[nH]c2=O)[C@](C)(F)[C@@H]1O)Oc1ccccc1 [SOFOSBUVIR] | CC50 at 120 h | > 100 µM

====

Below, each of the compounds is paired with its reported log10(CC50) value.
test system: Huh-7; assay: Cytotoxicity against human HuH7 cells assessed as reduction in rRNA levels after 5 days by RT-PCR analysis; type: cell-based; details: huh-7, 120 h
readoutName: log10(CC50) (log10 of the value in µM)

compound | log10(CC50)
Nc1ccn([C@@H]2O[C@H](CO)[C@@H](O)[C@@]2(F)Cl)c(=O)n1 | 1.08
CC(C)OC(=O)[C@H](C)NP(=O)(OC[C@H]1O[C@@H](n2cnc3c(N)ncnc32)[C@](F)(Cl)[C@@H]1O)Oc1ccccc1 (mixture of isomers) | 0.20
CC(C)OC(=O)[C@H](C)NP(=O)(OC[C@H]1O[C@@H](n2ccc(N)nc2=O)[C@](F)(Cl)[C@@H]1O)Oc1ccccc1 (mixture of isomers) | 1.36
Nc1ccn([C@@H]2O[C@H](CO)[C@@H](O)[C@@]2(F)Br)c(=O)n1 | 0.46
CC(C)OC(=O)[C@H](C)NP(=O)(OC[C@H]1O[C@@H](n2ccc(N)nc2=O)[C@](F)(Br)[C@@H]1O)Oc1ccccc1 (mixture of isomers) | 0.83
CC(C)OC(=O)[C@H](C)NP(=O)(OC[C@H]1O[C@@H](n2ccc(=O)[nH]c2=O)[C@](F)(Cl)[C@@H]1O)Oc1ccccc1 (mixture of isomers) | 0.11
CC(C)OC(=O)[C@H](C)NP(=O)(OC[C@H]1O[C@@H](n2ccc(=O)[nH]c2=O)[C@](F)(Br)[C@@H]1O)Oc1ccccc1 (mixture of isomers) | 0.90
CC(C)OC(=O)[C@H](C)NP(=O)(OC[C@H]1O[C@@H](n2cnc3c(N)ncnc32)[C@](F)(Br)[C@@H]1O)Oc1ccccc1 (mixture of isomers) | 0.84

====

tested on: CCRF-CEM; test: Cytotoxicity against human CEM cells after 6 days by trypan blue exclusion method; type: cell-based; settings: ccrf-cem, 144 h
readoutName: log10 CC50 (log10 of the value in µM)

compound | value
CC(C)OC(=O)[C@H](C)NP(=O)(OC[C@H]1O[C@@H](n2ccc(=O)[nH]c2=O)[C@](F)(Cl)[C@@H]1O)Oc1ccccc1 (mixture of isomers) | 1.95
CC(C)OC(=O)[C@H](C)NP(=O)(OC[C@H]1O[C@@H](n2cnc3c(=O)[nH]c(N)nc32)[C@](F)(Cl)[C@@H]1O)Oc1ccccc1 (mixture of isomers) | 1.92
CC(C)OC(=O)[C@H](C)NP(=O)(OC[C@H]1O[C@@H](n2cnc3c(N)ncnc32)[C@](F)(Cl)[C@@H]1O)Oc1ccccc1 (mixture of isomers) | 1.18
Nc1ccn([C@@H]2O[C@H](CO)[C@@H](O)[C@@]2(F)Cl)c(=O)n1 | 1.04
Nc1ccn([C@@H]2O[C@H](CO)[C@@H](O)[C@@]2(F)Br)c(=O)n1 | 0.51
CC(C)OC(=O)[C@H](C)NP(=O)(OC[C@H]1O[C@@H](n2cnc3c(N)ncnc32)[C@](F)(Br)[C@@H]1O)Oc1ccccc1 (mixture of isomers) | 1.46
